Taken from ChEMBL document CHEMBL1250555.

Measured IC50 on UniProtKB Q72547 follows.
Give the value, in units of µM, as a plain number.

Please respond with reported IC50 (system UniProtKB Q72547) for Cc1cc(=O)oc2c3c(ccc12)OC(C)(C)[C@H](OC(=O)[C@]12CC[C@](C)(C(=O)O1)C2(C)C)[C@@H]3OC(=O)[C@]12CC[C@](C)(C(=O)O1)C2(C)C . 10.4

More entries:
Please respond with reported IC50 (system UniProtKB Q72547) for Cc1cc(=O)oc2c3c(ccc12)O[C@@H](C)[C@H](OC(=O)[C@]12CC[C@](C)(C(=O)O1)C2(C)C)[C@@H]3OC(=O)[C@]12CC[C@](C)(C(=O)O1)C2(C)C . 6.7
